Biological target: T1, His-tagged P3028 (human, also: His-tag, terminus and sequence not given here)
T1 construct: in solution at 0.5 ug/mL over the peptide cards; found with anti-His-tag antibody and rabbit anti-mouse peroxidase (rampo); also called PGE73; not shown: His-tag
T1 peptide: VFDEFKPLVEEPQNLIK
Assay: PEPSCAN chip ELISA, His-P3028 in solution;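 note: score is the raw OD at 405 nm from peroxidase colour with ABTS, imaged by CCD camera before and after staining, with wells showing air bubbles set to zero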
No end group written: not given here.
RAMPO Score listing for selected binders.
Kindly answer with a numeric value in rampo score, unit omitted.

Some solved cases for reference:
{"Binder": "KKLDTFFTKLSLFTER [SEQ ID NO 496]", "Property Measured": "RAMPO Score", "Numeric Result": 298}
{"Binder": "KKLDTFFVKLSLLTER [SEQ ID NO 366]", "Property Measured": "RAMPO Score", "Numeric Result": 448}
{"Binder": "KKLDTFFVKPSLFTER [SEQ ID NO 338]", "Property Measured": "RAMPO Score", "Numeric Result": 436}

Read the next record carefully.
Task item: Item KKQDTFFVKLSLFTER [SEQ ID NO 293] has what recorded RAMPO Score?
Reply: 473

Reference source: patent US20170298096A1
